Answer each item with its documented PBM binding z-score.
- Tested on: PPARg:RXRa 30nM:10nM, anti-RXR (NR concentration 30 nM, RXRa partner concentration 10 nM)
- Assay remarks: PBM binding z-score (relative to random genomic background probes); higher = stronger binding; sequences stand for … in GC…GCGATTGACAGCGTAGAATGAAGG
Numbers only.

Field: example entries. Status: answers known.
Endpoint output: PBM binding z-score of `CTATGTAGGTTAAGGGGGTCATTCTGTTTGAAAG` . Value?
6

Endpoint output: PBM binding z-score of `CGTCTAAGGTCAAAGGTCAGTGAAGAGATGACGG` . Value?
8.75

Endpoint output: PBM binding z-score of `CCTACTGGGCCAAAGGTCAGTGATTCCAATGCTC` . Value?
9.62

Endpoint output: PBM binding z-score of `CTATCTAGGTTAAGGGGGTCATTCAGTTTGAAAG` . Value?
6.25

Endpoint output: PBM binding z-score of `CGAACTAGGTCAAAGGACAGTGATAGGCGACGTA` . Value?
8.49

Endpoint output: PBM binding z-score of `ACAGACAGGTGAGTGAAGGTCACTCAGCTGGACG` . Value?
0.232

Provide PBM binding z-score values for the following items, in order.
1. CATACACGGTCAGCTAGGCCAGAGTAGGGACGGC
2. GCTGCTAGGTCAGGTTGGTCAACTAACGGGTACG
3. TCTCGGAGGACACGAAACGTCAGAGCTCGACATC
4. CTCGAAAGGTCGTGCTTAGGTGAGTATACCAAAC
5. TGAATGAGGTTTAAGATCAGGGAACGTGGCGTCG
6. CGAACTAGGGCACCAGGACAGTGAAGAGGTTGGA
7. CCTTACGGGTCAAGGTTGTAGCACGGGTGGTACG

[-0.34, -0.708, 2.04, 1.12, 0.74, 1.13, 1.2]

Provide PBM binding z-score values for the following items, in order.
1. GCTGCTCGGTCAACTGATGGTCAGCTAAAGCTCG
2. CGAACTAGGTGATTGACAGGACAGTGAATAGTAA
3. ACATGTAGGTTAGGGTCATTCAGAAAGTAGGGAA

1. -0.686
2. 0.548
3. 3.37

Provide PBM binding z-score values for the following items, in order.
1. CTATGTAGGTTAAGGGGGTCATTGAGTTTGAAAG
2. TCGAGTAGGTTACGGGGGCATTCAGGGATGAAGA
3. CCGAGTAGGTTACGATGGGGCATTCAGTGCGAAT
4. TCGAGTAGGTTACGGGGGCATTCCGGGATGAAGA
5. CCGAGTAGGTTACGAGGGGGCATCCAGTGCGAAT
6. ATATGTAGGTCAGCTGGGGTCATTCAGACTAGGC
7. CGTCCAAGGTCAATGTTAGGTCAGTGAAAGCATT
8. CCGAGTAGGTTACGAGGGGGCATTCAGTGCGAAT

5.98
3.3
-0.257
2.85
0.797
5.31
0.937
1.24

Endpoint output: PBM binding z-score of `TCGAGCAGGTTACGGGGGCATTCAGGGATGAAGA` . Value?
2.24
